tested on: estrogen receptor of rat prostates; assay: Estrogen receptor binding, rat prostate cytosol, competition with 3H-estradiol; settings: Table 2; rat prostate cytosol, 3H-estradiol
MEASUREMENT_NAME: ER Prostate RBA
# answer = number (no unit)

In plain terms, CC#C[C@]1(O)CC[C@H]2[C@@H]3CCc4cc(O)ccc4[C@H]3[C@@H](C)C[C@@H]21 has a documented ER Prostate RBA of 111

In plain terms, C=C1C[C@H]2[C@@H](CC[C@@]2(O)C#CC)[C@@H]2CCc3cc(O)ccc3[C@@H]12 has a documented ER Prostate RBA of 77

In plain terms, CC#C[C@]1(O)CC[C@H]2[C@@H]3CCc4cc(O)ccc4[C@H]3CC[C@@H]21 has a documented ER Prostate RBA of 10

In plain terms, C[C@H]1C[C@H]2[C@@H](CC[C@]2(C)O)[C@@H]2CCc3cc(O)ccc3[C@H]21 has a documented ER Prostate RBA of 45
